# assay.system: Adenosine receptor A2b (Homo sapiens)
# assay.name: Displacement of [3H]DPCPX from human adenosine A2b receptor expressed in HEK293 cells at 10 uM after 30 mins
# Assay type: cell-based
Active and inactive are the calls of the source. The rule behind the calls is not given here.
observation.type: inhibition

>>> reported_result("CCc1nc2c(=O)n(C(C)c3ccccc3)nc(C)c2c2cc(-c3ccccc3)nn12 (stereo not given)")
"< 50%"
>>> reported_result("Cc1nc2c(=O)n(Cc3ccccc3)nc(-c3ccc(F)cc3)c2c2cc(-c3ccccc3)nn12")
"inactive"
>>> reported_result("Fc1ccc(-c2nnc(Cl)c3ncn4nc(-c5ccccc5)cc4c23)cc1")
"inactive"
>>> reported_result("O=c1c2ncn3nc(-c4ccccc4)cc3c2c(-c2ccc(F)cc2)nn1Cc1ccccc1")
"inactive"
>>> reported_result("Cc1nn(Cc2ccccc2)c(=O)c2ncn3nccc3c12")
"< 50%"

These measurements were taken from ChEMBL document CHEMBL1275345.
